- System: SF-295 CNS
- MEASUREMENT_NOTES: NCI tumour cell line growth inhibition, 48 h
MEASUREMENT_LABEL: TGI

Solved entries:
NC(=O)c1cc(N(CCO)CCO)c([N+](=O)[O-])cc1[N+](=O)[O-]
> 100 µM
Cc1ccc(S(=O)(=O)NC(=O)NC(CCCCN=C(N)N)C(=O)O)cc1 (stereo unspecified)
> 100 µM
C=C/C(C)=C/C[C@]1(C)[C@H](C)[C@@H](OC(=O)CCC)[C@H](O)[C@@]23C(=C[C@H](OC)C[C@@H]12)[C@@H](OC(=O)CCC)O[C@H]3OC(C)=O
2.48 µM
CC1(C)CC2(C)CC1CC2(O)c1ccccc1 (stereo unspecified)
> 100 µM
CN(C(=O)c1ccc2c(c1)sc1c(=O)n(C)c3ccccc3c12)c1ccccc1
> 100 µM
CCN(Cc1cc(F)ccc1F)c1ccc(CO)c(Cl)c1
13.2 µM
CC(=O)NNc1nc(C)c(C(=O)NNC(=O)C(=O)Nc2cccc(C(C)=O)c2)s1
66.2 µM
Cc1ccc(-c2nnc(CCCCCCCCc3nnc(-c4ccc(C)cc4O)n3N)n2N)c(O)c1
> 100 µM

Fill blank: measured TGI of the compound COc1cccc(/C(Cl)=C(\C=O)c2cccc(OC)c2)c1 is ____. 35.6 µM

# get_value(readout='TGI', item= C#CCNC(=O)ON1C(=O)CCC1=O ) > 100 µM

// lookup TGI for Cc1c(C(=O)/C=C/C=C/c2ccccc2)[n+](=O)c2ccccc2n1[O-] > 100 µM
